Assay: Compound 2 and metabolites in rat plasma, 50 mg/kg PO QD×10
Type: in vivo
Settings: rat plasma; Compound 2 50 mg/kg PO QD×10; 1 h post tenth dose
Method: The proposed metabolite pathway was determined in vitro, and levels of potential metabolites were measured by LC/MS-MS in rat plasma remaining from the dose rising 10-day repeat dose study in rats. Six potential metabolites were quantified in the low (50 mg/kg) single dose rats. […] The male and female PK parameters were averaged together since there was <2-fold variation between the genders. All values deemed below the level of quantification (BLQ) were excluded from the PK parameters calculations.
observedProperty: Average Concentration (ng/mL)

{"compound": "CCn1c(C#CCNc2ccc(F)cc2)cc2cc(CNC)ccc21 [Compound 5]", "observedProperty": "Average Concentration", "unitLabel": "ng/mL", "measured": 596.00}
{"compound": "CCn1c(C#CCNc2ccc(Cl)cc2)cc2cc(CNC3CCN(C)CC3)ccc21 [Compound 7]", "observedProperty": "Average Concentration", "unitLabel": "ng/mL", "measured": 1.53}
{"compound": "CCn1c(C#CCNc2ccc(C)nc2)cc2cc(CNC3CCOCC3)ccc21 [Compound 8]", "observedProperty": "Average Concentration", "unitLabel": "ng/mL", "measured": 18.52}
{"compound": "CCn1c(C#CCNc2ccccc2)cc2cc(CNCc3ccccc3)ccc21 [Compound 4]", "observedProperty": "Average Concentration", "unitLabel": "ng/mL", "measured": 51.07}

---

test system: P-gp; experiment: in vitro; details: dog, MDCK-MDR1, pH 7.4
observedProperty: Papp A→B at 120 min (×10⁻⁶ cm/s)

{"molSmiles": "C[C@H]1O[C@@H](O[C@H]2[C@@H](O)C[C@H](O[C@H]3[C@@H](O)C[C@H](O[C@H]4CC[C@@]5(C)[C@H](CC[C@@H]6[C@@H]5C[C@@H](O)[C@]5(C)[C@@H](C7=CC(=O)OC7)CC[C@]65O)C4)O[C@@H]3C)O[C@@H]2C)C[C@H](O)[C@@H]1O", "measured": 0.0792}

---

Each entry below carries its reported recovery at 60 min, 2 μM.
assay: in vitro; details: male, CD-1, mouse
observedProperty: recovery at 60 min, 2 μM (%)

{"molecule": "O=C(O)Cc1ccccc1Nc1c(Cl)cccc1Cl", "observedProperty": "recovery at 60 min, 2 μM", "unitLabel": "%", "measured": 100}
{"molecule": "CCN(CC)CCCC(C)Nc1ccnc2cc(Cl)ccc12 (centres unmarked)", "observedProperty": "recovery at 60 min, 2 μM", "unitLabel": "%", "measured": 99.4}

---

assay: in vitro; details: human, Caco-2
observedProperty: Papp A→B (×10⁻⁶ cm/s)

{"molecule": "C[C@H]1O[C@@H](O[C@H]2[C@@H](O)C[C@H](O[C@H]3[C@@H](O)C[C@H](O[C@H]4CC[C@@]5(C)[C@H](CC[C@@H]6[C@@H]5C[C@@H](O)[C@]5(C)[C@@H](C7=CC(=O)OC7)CC[C@]65O)C4)O[C@@H]3C)O[C@@H]2C)C[C@H](O)[C@@H]1O [Digoxin, digoxin]", "measured": 0.511}

---

biological target: P-GP (Homo sapiens, UniProt P08183); assay: in vitro; conditions: Caco-2, pH 7.4, Papp R2
Sequence (P08183 whole entry): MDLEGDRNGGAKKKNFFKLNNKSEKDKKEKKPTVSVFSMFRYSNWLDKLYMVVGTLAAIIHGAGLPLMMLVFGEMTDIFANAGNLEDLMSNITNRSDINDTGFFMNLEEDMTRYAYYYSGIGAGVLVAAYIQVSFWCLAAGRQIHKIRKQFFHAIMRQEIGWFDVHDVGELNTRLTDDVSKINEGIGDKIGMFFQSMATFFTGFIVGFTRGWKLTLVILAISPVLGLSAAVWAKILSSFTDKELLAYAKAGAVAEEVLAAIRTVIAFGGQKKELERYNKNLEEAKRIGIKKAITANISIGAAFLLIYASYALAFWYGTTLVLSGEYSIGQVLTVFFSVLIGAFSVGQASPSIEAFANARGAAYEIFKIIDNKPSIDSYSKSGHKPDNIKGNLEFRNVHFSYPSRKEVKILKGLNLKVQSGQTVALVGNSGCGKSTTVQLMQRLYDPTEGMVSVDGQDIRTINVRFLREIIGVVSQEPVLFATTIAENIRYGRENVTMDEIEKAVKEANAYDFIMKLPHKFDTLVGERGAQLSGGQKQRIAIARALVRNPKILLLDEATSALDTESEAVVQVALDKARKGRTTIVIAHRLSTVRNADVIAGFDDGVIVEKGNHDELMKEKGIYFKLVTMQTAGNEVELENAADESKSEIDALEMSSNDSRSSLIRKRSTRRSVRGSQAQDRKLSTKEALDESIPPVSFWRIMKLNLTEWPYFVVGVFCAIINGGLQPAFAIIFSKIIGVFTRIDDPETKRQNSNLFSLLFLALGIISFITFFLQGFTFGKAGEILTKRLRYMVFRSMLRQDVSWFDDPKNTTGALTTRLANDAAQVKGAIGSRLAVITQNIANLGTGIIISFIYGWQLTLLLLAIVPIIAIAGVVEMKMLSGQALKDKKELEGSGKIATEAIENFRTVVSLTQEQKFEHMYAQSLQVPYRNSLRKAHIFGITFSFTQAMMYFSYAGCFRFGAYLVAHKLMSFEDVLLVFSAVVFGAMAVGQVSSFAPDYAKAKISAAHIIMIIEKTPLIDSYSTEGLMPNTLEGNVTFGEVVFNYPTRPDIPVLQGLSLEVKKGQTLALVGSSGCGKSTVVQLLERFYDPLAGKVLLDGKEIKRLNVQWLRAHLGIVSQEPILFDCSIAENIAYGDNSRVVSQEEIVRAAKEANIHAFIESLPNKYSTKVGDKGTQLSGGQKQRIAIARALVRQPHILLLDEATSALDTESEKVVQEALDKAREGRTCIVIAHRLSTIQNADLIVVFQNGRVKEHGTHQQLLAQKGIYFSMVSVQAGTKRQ

{"compound": "C[C@H]1O[C@@H](O[C@H]2[C@@H](O)C[C@H](O[C@H]3[C@@H](O)C[C@H](O[C@H]4CC[C@@]5(C)[C@H](CC[C@@H]6[C@@H]5C[C@@H](O)[C@]5(C)[C@@H](C7=CC(=O)OC7)CC[C@]65O)C4)O[C@@H]3C)O[C@@H]2C)C[C@H](O)[C@@H]1O [Digoxin, digoxin]", "Papp A→B at 120 min, 10 μM, ×10⁻⁶ cm/s": 0.645}
